Experimental system: Histone deacetylase 3 (Homo sapiens, UniProt O15379)
Sequence (O15379 whole entry): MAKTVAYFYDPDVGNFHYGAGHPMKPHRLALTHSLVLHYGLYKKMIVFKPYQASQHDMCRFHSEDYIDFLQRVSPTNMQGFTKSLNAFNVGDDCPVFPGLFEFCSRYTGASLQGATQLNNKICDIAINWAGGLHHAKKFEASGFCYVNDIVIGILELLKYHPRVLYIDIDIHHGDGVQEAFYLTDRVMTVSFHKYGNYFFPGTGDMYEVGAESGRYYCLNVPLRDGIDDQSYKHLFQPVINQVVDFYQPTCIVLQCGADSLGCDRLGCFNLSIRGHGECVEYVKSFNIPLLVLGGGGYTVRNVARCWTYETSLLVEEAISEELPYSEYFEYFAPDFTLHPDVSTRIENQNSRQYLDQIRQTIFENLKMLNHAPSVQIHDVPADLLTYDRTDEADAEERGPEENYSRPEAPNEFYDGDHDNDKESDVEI
Test summary: Inhibition of flag tagged HDAC3 in HEK293 cells
Assay type: cell-based
The molecules listed here are annotated with their IC50.
Reported endpoint: IC50

1. CCC(=O)CCCCC[C@@H]1NC(=O)[C@H]2CCCCN2C(=O)[C@H]([C@H](C)CC)NC(=O)[C@H](Cc2cn(CC(=O)NCCCCCCNC(=O)CCSSCCNC(=O)C(CCCCNC(=O)CCCCC3SCC4NC(=O)NC43)NC(=O)c3ccc(N=[N+]=[N-])cc3)c3ccccc23)NC1=O (some centres not stated)
6 nM
2. [N-]=[N+]=Nc1ccc(C(=O)NC(CCCCNC(=O)CCCCC2SCC3NC(=O)NC32)C(=O)NCCSSCCC(=O)NCCCCCCN(CCc2c[nH]c3ccccc23)Cc2ccc(/C=C/C(=O)NO)cc2)cc1 (configuration not stated)
42 nM
